Where do the numbers come from? From paper PMC8640019.

Substrate: CIS R78G, F116L-EloB/C (human), Q9NSE2
Method Summary: SPR
Condition: remark: other sources report otherwise
Result Type: IC50
Enter the number, and then the unit.

### Prompt Which IC50 value is on record for PVPDYTSIHIV (here or on the partner: phosphotyrosine at 595) [GHR pY595 peptide] ?
### Response 20 µM
